method-description: soluble on expression in E. coli; label from the status in PepcDB or PDB records
property: soluble on expression in E. coli

Input: What measured soluble on expression in E. coli goes with `MGSDKIHHHHHHMRNTAVAEQPASVPAMSRLTRQRLHDTVVEYLRDYIVKGVLAPGVKLNERELCETLGISRTPLREAIKVLAAEGLIEISANRGAAVTKLAESEIDEMFELMSGLEAFAGELACERITPHEIAEIKALHYAMVACREREDLSGYYGYNQQIHDRINGAARNCALRQTYLSINRRLQAMRFKSNFHKSKRDHAVHDHEEMIKALESRDGKRLSAILRQHLLDKRDVVLVTLATARETPATGGR` ?
Output: not soluble

Input: What measured soluble on expression in E. coli goes with `MGSDKIHHHHHHMSVVNKIIGVCRFSYLGLGGFRINEAGAEEAAKALYAADRMTLRFAYFETICLPSLAAQTDSDFTFVALIADTMPLPFRQRLKRLTETYPFLRIAVLESTGPYNSTRRAFSRGLDGQETDFITGFRLDDDDAVSVDYIARTREAADTLITLGWATKDDPAAVCFHRGIYWDMKRPDAPFWDYSEIQPLGLASAMVHHRDSRQNIYRWNHRKLASKVRCWTDPSDVMFLRTLHDHNDSGRVMPRDAEQIPDEQARRLLKDRFGLNPKRLLSTMDRVHGGTDAARQWAAETREDPFGKDGDA` ?
Output: not soluble

Input: What measured soluble on expression in E. coli goes with `MGSDKIHHHHHHMIYIDKNESPVTPLDEKTMTSIISATPYNLYPDAAYEQFKEAYAKFYGLSPEQIIAGNGSDELIQKLMLIMPEGPALTLNPDFFMYQAYAAQVNREIAFVDAGSDLTFDLETILTKIDEVQPSFFIMSNPHNPSGKQFDTAFLTAIADKMKALNGYFVIDEAYLDYGTAYDVELAPHILRMRTLSKAFGIAGLRLGVLISTAGTIKHIQKIEHPYPLNVFTLNIATYIFRHREETRVFLTMQRQLAEQLKQIFDTHVADKMSVFPSNANFVLTKGSAAHQLGQYVYEQGFKPRFYDEPVMKGYVRYSIATASQLKQLEEIVKEWSAKYDLSKTTKHS` ?
Output: not soluble

====

method-description: soluble on expression in E. coli; label from the status in PepcDB or PDB records
property: soluble on expression in E. coli

Input: What measured soluble on expression in E. coli goes with `VKIDNKTFQVNGRVLLDDLTEEFGIEFDDSEDIDTIGGWLQSRNTNLQKDDYVDTTYDRWVVSEIDNHQIIWVILNYEFNEARPTIGQSDEDEKSE` ?
Output: not soluble

Input: What measured soluble on expression in E. coli goes with `ARLRAGFEAAGAQGVETPILQPAETLLDLYGEDIRARAYVTSDALRGEQMLRPDFTVPVVQKHMEHGAEPARYTYAGEVFRRQEHDPDRANEYIQVGYEVFDRTNPAAADAEVFALIAQALDGLALRAATGDIGILMAAVEGLKTTEPRKAALMRHIWRPRRFRALLDRYAGRTTVPPARAALLAESEPLADGAPEIGKRSRAEVEARIEVLRADAAAAPISDNEMAGLDALLSVRETMPYALEHLRDIAVDLPQITPALDRLEARIAALRARGINVDRLDFEASYGRTSMEYYDGFVFGFYAERRPDLPPIATGGRYDALTRRLGNGAEIPAVGGVLRPGLMLLLAEAE` ?
Output: not soluble

Input: What measured soluble on expression in E. coli goes with `MGSDKIHHHHHHIEGPGTTENLKEFVTVDGKKDTQSGAFYLTTVGIRSATIFSAIKANFSDFQEVMSKKELMGDSSNSEYNRIQQYYMDSSKNAAIEQALKLAKVPYEMKFKGVYVLAMEDNSSFKGKIEVGDTVTGVDGKSFKSSEELMNYIKAQKVNQKVTVQFIQDGKAKEATGKLIELPTDKKAGIGIGLTDHTEIDSSIPVSIEAGDIGGPSAGLMFTLQTYEQLSHKDLRKGHEIAGTGTMNSQGIVGRIGGIDKKVVTASENGAEIFFAPDDEITSEMKKVEPKIKSNYQEAQEAAKKIGTKMKIVPVKTVQDALNYLEKLK` ?
Output: not soluble

====

method-description: soluble on expression in E. coli; label from the status in PepcDB or PDB records
property: soluble on expression in E. coli

Record excerpt, results attached:
Input: What measured soluble on expression in E. coli goes with `LSPLPRAYQWADGSAYLNHVELVRKARGAEVPASFYTDPLMYQGGSDAFLAPTADIPLRDEAWGLDFEGEVAVVTGDVPLGAPADAKYIRLLMLVNDVTLRGLIPPELAKGFGFFQSKPATAFSPVAVTPDELGDAWDGGKVHLPLLVDYNGAFYGKPDCGVEMQFSFPQLVAHVSKTRELVAGSIVGSGTISNKDRSVGSCCLAEQRMIETIEQGAPKTPFMKVGDTVRIEMRNAAGDSIFGAIEQTVVKHD` ?
Output: not soluble

Input: What measured soluble on expression in E. coli goes with `MKFDDSKPIYKQIVHYIHTEIVTGTYEAGDKLLSVRELATKLEVNPTTIQRAYAELEEAGIIFTVRGTGKYLTEDKRRIEQLENHIAKQLTENFISEMSKLGINKEKIIAWVKKVEEVEVNASGK` ?
Output: not soluble

Input: What measured soluble on expression in E. coli goes with `MTVDFYSFAKGIVKGVLTPFYRIQTIGIEQFPKEGGVLLCANHISNLDPPVIGITAPRPIRFMAKEELFRAPVVKTLVKSLHAFPVKRGMNDRQALRTGLEVLKQGEVLGIFPEGTRSKDGRLKKALPGVGFFALRTDAAVVPCAIVGPYRPFVPLKVVYGAPVDMAPLRARKASPEEAADYIMDHIRRLLEEHQRA` ?
Output: not soluble

Input: What measured soluble on expression in E. coli goes with `MSLSLLLQQHLSQPWRFLDHTSFGPTFQALQSFAYDDTLCTSIGKSQSPPTLRAWVHHNTVVLGIQDSRLPQIKAGIEALKGFQHDVIVRNSGGLAVVLDSGILNLSLVLKEEKGFSIDDGYELMYELICSMFQDHREQIEAREIVGSYCPGSYDLSIDGKKFAGISQRRIRGGVAVQIYLCVSGSGAERAKMIRTFYDKAVAGQPTKFVYPRIKPETMASLSELLGQPHNVSDVLLKALMTLQQHGASLLTESLSADEWLLYEQHFARISERNEKLLAEEGHHHHHH` ?
Output: soluble

Input: What measured soluble on expression in E. coli goes with `MKFDVIIIGGSYAGLSAALQLGRARKNILLVDAGERRNRFASHSHGFLGQDGKAPGEIIAEARRQIERYPTIHWVEGRVTDAKGSFGEFIVEIDGGRRETAGRLILAMGVTDELPEIAGLRERWGSAVFHCPYCHGYELDQGKIGVIAASPMAIHHALMLPDWGETTFFTNGIVEPDADQHALLAARGVRVETTRIREIAGHADVVLADGRSIALAGLFTQPKLRITVDWIEKLGCAVEEGPMGSTIVTDPMKQTTARGIFACGDVARPAGSVALAVGDGAMAGAAAHRSILFPEMR` ?
Output: soluble

Input: What measured soluble on expression in E. coli goes with `MTTFERIKKLSAKKGITISQLTSELEMGENSIYRWKTQKPALDKLQKVADYFNVSIDYLLGRTDNPQIDSDIPPEATTLAAHIDPAATEEDMKKILEYIDFIQQKYK` ?
Output: not soluble

More entries:
Input: What measured soluble on expression in E. coli goes with `MAAQATAETPAGELPVIDAVTTHAPEVPPAIDRDYPAKVRVKMETVEKTMKMDDGVEYRYWTFDGDVPGRMIRVREGDTVEVEFSNNPSSTVPHNVDFHAATGQGGGAAATFTAPGRTSTFSFKALQPGLYIYHCAVAPVGMHIANGMYGLILVEPKEGLPKVDKEFYIVQGDFYTKGKKGAQGLQPFDMDKAVAEQPEYVVFNGHVGALTGDNALKAKAGETVRMYVGNGGPNLVSSFHVIGEIFDKVYVEGGKLINENVQSTIVPAGGSAIVEFKVDIPGNYTLVDHSIFRAFNKGALGQLKVEGAENPEIMTQKLSDTAYAVPR` ?
Output: soluble

Input: What measured soluble on expression in E. coli goes with `MDRISGLPDEVLVKILSFVPTKVAVSTSILSKRWEFLWMWLTKLKFGSKRYSESEFKRLQCFLDRNLPLHRAPVIESFRLVLSDSHFKPEDIRMWVVVAVSRYIRELKIYSSHYGEKQNILPSSLYTCKSLVILKLDGGVLLDVPRMVCLPSLKTLELKGVRYFKQGSLQRLLCNCPVLEDLVVNLSHHDNMGKLTVIVPSLQRLSLSTPSSREFVIDTPSLLSFQLVDRNDNSHTFLIENMPKLREAYINVPFADIKSLIGSITSVKRLAISSEVGYGEGFIFNHLEELTLWNKYSSNLLVWFLKNSPNLRELMLVSETDVSFFH` ?
Output: soluble
